Target: T1, human melanocortin-4 receptor (hMC4-R) (human, UniProt P32245 1-332)
T1 construct: whole, on cells; membranes prepared from hMC4-R cells were used; also called Melanocortin Receptor 4
T1 sequence (P32245 whole entry): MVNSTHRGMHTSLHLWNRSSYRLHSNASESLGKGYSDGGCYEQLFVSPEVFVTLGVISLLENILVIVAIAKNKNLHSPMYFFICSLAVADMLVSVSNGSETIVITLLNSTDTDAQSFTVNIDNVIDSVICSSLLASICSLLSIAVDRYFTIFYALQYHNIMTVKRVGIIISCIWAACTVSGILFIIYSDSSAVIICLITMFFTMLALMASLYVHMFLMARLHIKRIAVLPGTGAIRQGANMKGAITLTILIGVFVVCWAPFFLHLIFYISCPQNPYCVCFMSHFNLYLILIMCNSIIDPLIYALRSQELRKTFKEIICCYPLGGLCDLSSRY
Experiment: 125I-NDP-α-MSH competition, hMC4-R membranes
Square brackets hold non-standard residues; d marks the D form. Nle = CCCC[C@H](N)C(=O)O
Assignment: determine reported % Inhibition at 1 µM for the given binders.
Report the figure in % without appending any unit label.

Can you share its % Inhibition at 1 µM? I mean this binder: Ac-SYS[Nle]EHFRWGKGVC-NH2 (not fully specified; also: oxorhenium(V) N3S1 chelate at Cys14) [metallopeptide 1-1]
63

I am curious: what % Inhibition at 1 µM value has been reported for Ac-SYS[Nle]EHFRCWGKPV-NH2 (also: oxorhenium(V) N3S1 chelate at Cys9) [metallopeptide 1-6] ?
0

Item Ac-SYS[Nle]EHFCRWGKPV-NH2 (also: oxorhenium(V) N3S1 chelate at Cys8) [metallopeptide 1-7] has what recorded % Inhibition at 1 µM?
0

Item under review: Ac-SYS[Nle]EHFRWGKGCV-NH2 (also: oxorhenium(V) N3S1 chelate at Cys13) [metallopeptide 1-2] . Reported % Inhibition at 1 µM?
0

Query: % Inhibition at 1 µM; subject: Ac-SYS[Nle]EHFRWGKCPV-NH2 (also: oxorhenium(V) N3S1 chelate at Cys12) [metallopeptide 1-3]
0
